# measuredOn: delta opioid receptor (Mus musculus, UniProt P32300)
# Construct: NG108-15 cell membranes were purchased from Applied Cell Sciences (Rockville, Md.); host or cells: NG108-15 cell membranes
# Sequence (P32300 whole entry): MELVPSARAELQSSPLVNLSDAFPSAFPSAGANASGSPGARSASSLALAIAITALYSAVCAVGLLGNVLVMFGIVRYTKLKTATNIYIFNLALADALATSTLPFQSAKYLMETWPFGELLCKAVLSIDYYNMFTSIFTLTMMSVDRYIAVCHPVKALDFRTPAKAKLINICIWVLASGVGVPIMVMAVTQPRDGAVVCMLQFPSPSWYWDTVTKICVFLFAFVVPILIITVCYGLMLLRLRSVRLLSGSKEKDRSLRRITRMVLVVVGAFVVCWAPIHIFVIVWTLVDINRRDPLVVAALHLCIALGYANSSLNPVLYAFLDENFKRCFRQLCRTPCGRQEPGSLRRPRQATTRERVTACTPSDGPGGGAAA
# experimentSummary: [35S]GTPγS binding assay in NG108-15 cell membranes (delta opioid functional assay), 200 nM screen
# Type: biochemical
# experimentalParameters: 200 nM test compound; relative to calculated max of SNC80 dose response curve; NG108-15 cell membranes; averages if tested more than once
In this section, each of the compounds is paired with its reported GTPγS δ-RelEfficacy @200 nM.

| compound | measuredOn | GTPγS δ-RelEfficacy @200 nM |
| --- | --- | --- |
| Cc1ccc(Oc2nc(-c3cncc(C#N)c3)ncc2NC[C@@H]2CCCN2)c(F)c1F | delta opioid receptor (Mus musculus, UniProt P32300) | 0.375 |
| COc1ccc(Oc2nc(-c3cncc(C#N)c3)ncc2N2CC[C@H](N)C2)cc1 | delta opioid receptor (Mus musculus, UniProt P32300) | 0.377 |
| COCCOc1ccc(Oc2nc(-c3cncc(OC)c3)ncc2NC[C@@H]2CCCN2)cc1 | delta opioid receptor (Mus musculus, UniProt P32300) | 0.433 |
| FC(F)(F)COc1ccc(Oc2nc(-c3cncnc3)ncc2NC[C@@H]2CCCN2)cc1 | delta opioid receptor (Mus musculus, UniProt P32300) | 0.653 |
| CS(=O)(=O)Nc1ccc(Oc2nc(-c3cncc(F)c3)ncc2NC[C@@H]2CCCN2)cc1 | delta opioid receptor (Mus musculus, UniProt P32300) | 0.079 |
| COc1ccc(Oc2nc(-c3cncc(OC)c3)ncc2NC[C@@H]2C[C@@H](F)CN2)cc1 | delta opioid receptor (Mus musculus, UniProt P32300) | 0.962 |
| CC(=O)Oc1cccc(Oc2nc(-c3cncc(C#N)c3)ncc2NC[C@@H]2CCCN2)c1 | delta opioid receptor (Mus musculus, UniProt P32300) | 1.039 |
| COc1ccc(Oc2nc(-c3cncc(C#N)c3)ncc2N[C@H]2CCCNC2)cc1 [Cpd 207] | delta opioid receptor (Mus musculus, UniProt P32300) | 0.963 |

====

# measuredOn: mu opioid receptor (Rattus norvegicus, UniProt P33535)
# Construct: the forebrains were homogenized in Tris buffer in a Teflon®-glass homogenizer; from tissue; host or cells: forebrain of male Wistar rats, particulate (membrane) preparation
# Sequence (P33535 whole entry): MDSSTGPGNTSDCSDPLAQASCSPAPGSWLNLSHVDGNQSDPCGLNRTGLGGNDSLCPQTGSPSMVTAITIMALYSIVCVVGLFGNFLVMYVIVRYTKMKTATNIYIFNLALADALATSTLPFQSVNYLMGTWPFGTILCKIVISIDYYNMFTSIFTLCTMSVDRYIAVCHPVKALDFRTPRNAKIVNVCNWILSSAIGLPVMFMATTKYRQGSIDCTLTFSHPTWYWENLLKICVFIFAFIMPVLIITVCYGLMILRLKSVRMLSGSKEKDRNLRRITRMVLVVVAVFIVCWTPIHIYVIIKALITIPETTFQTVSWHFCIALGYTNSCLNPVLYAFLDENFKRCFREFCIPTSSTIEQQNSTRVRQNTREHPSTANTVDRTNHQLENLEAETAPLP
# experimentSummary: Rat brain mu opioid receptor binding assay
# experimentalParameters: μ-binding Ki, rat forebrain, [3H]DAMGO ligand
pKi: −log10 of the molar value.

| querySmiles | measuredOn | pKi |
| --- | --- | --- |
| COc1ccc(Oc2nc(-c3ccc4c(c3)OCO4)ncc2NC[C@@H]2CCCN2)cc1 | mu opioid receptor (Rattus norvegicus, UniProt P33535) | 6.26 |
| COc1ccc(Oc2nc(-c3ccc(O)cc3)ncc2NC[C@@H]2CCCN2)cc1 | mu opioid receptor (Rattus norvegicus, UniProt P33535) | 7.54 |
| N#Cc1cncc(-c2ncc(NC[C@@H]3CCCN3)c(Oc3ccc(OC(F)F)cc3)n2)c1 | mu opioid receptor (Rattus norvegicus, UniProt P33535) | 5.97 |

====

# measuredOn: mu opioid receptor (Rattus norvegicus)
# Construct: the forebrains were homogenized in Tris buffer in a Teflon®-glass homogenizer; from tissue; host or cells: forebrain of male Wistar rats, particulate (membrane) preparation
# experimentSummary: Rat brain mu opioid receptor binding assay
# experimentalParameters: rat forebrain, [3H]DAMGO ligand; read-out: μ-binding Ki
In this section, each of the compounds is paired with its reported Ki.
metricName: Ki (µM)

| compound | metricName | valueOperator | assayValue |
| --- | --- | --- | --- |
| COc1ccc(Oc2nc(-c3ccccc3OC)ncc2NC[C@@H]2CCCN2)cc1 | Ki | > | 10 |
| COc1ccc(Oc2nc(-c3cccc4nc(C)ccc34)ncc2NC[C@@H]2CCCN2)cc1 | Ki | = | 2.24 |
| COc1ccc(Oc2nc(-c3cc(F)cc(OC)c3)ncc2NC[C@@H]2CCCN2)cc1 | Ki | = | 2.25 |
| COc1ccc(Oc2nc(-c3ccc4c(c3)CCO4)ncc2NC[C@@H]2CCCN2)cc1 | Ki | = | 0.633 |
| COc1ccc(Oc2nc(-c3cnn(C)c3)ncc2NC[C@@H]2CCCN2)cc1 | Ki | = | 1.56 |
| Oc1ccc(Oc2nc(-c3ccc(O)nc3)ncc2NCC2CCCN2)cc1 (stereo not drawn) | Ki | = | 5.12 |
| COc1ccc(Oc2nc(-c3c(C)noc3C)ncc2NC[C@@H]2CCCN2)cc1 | Ki | = | 1.92 |
| COc1ccc(-c2ncc(NC[C@@H]3CCCN3)c(Oc3ccccc3OC)n2)cn1 | Ki | = | 8.99 |
| COc1ccc(Oc2nc(-c3ccnc(SC)n3)ncc2NC[C@@H]2CCCN2)cc1 | Ki | = | 0.39 |
